Format: physicochemical
Details: DI water, 25° C., 0.5 mM; time 30 min
Kindly state Condition 2 Conversion (%) for each of the entries shown.

Consider the compound shown here: CCON=C1CC[C@@]2(c3ccc(OC)c(OC)c3)CCN(C)[C@H]2C1 [Compound 200] What is its recorded Condition 2 Conversion (%)?
0%

Consider the compound shown here: COc1ccc([C@@]23CCC(OC(=O)C(c4ccccc4)c4ccccc4)=C[C@@H]2N(C)CC3)cc1OC [Compound 306] What is its recorded Condition 2 Conversion (%)?
0%

Consider the compound shown here: COc1ccc([C@@]23CCC(=NNC(=O)c4ccc(F)cc4)C[C@@H]2N(C)CC3)cc1OC [Compound 220] What is its recorded Condition 2 Conversion (%)?
22.27%

Consider the compound shown here: COc1ccc([C@@]23CC/C(=N\NC(=O)CCC(=O)O)C[C@@H]2N(C)CC3)cc1OC [Compound 245] What is its recorded Condition 2 Conversion (%)?
50%

Consider the compound shown here: COc1ccc([C@@]23CC/C(=N/OC45CC6CC(CC(C6)C4)C5)C[C@@H]2N(C)CC3)cc1OC [Compound 301] What is its recorded Condition 2 Conversion (%)?
0%

Consider the compound shown here: COc1ccc([C@@]23CC/C(=N\NC(=O)c4ccccc4C(=O)O)C[C@@H]2N(C)CC3)cc1OC [Compound 244] What is its recorded Condition 2 Conversion (%)?
4.08%

Consider the compound shown here: COc1ccc([C@@]23CCC(=NOCCON=C4CC[C@@]5(c6ccc(OC)c(OC)c6)CCN(C)[C@H]5C4)C[C@@H]2N(C)CC3)cc1OC [Compound 210] What is its recorded Condition 2 Conversion (%)?
0%

###

Type: physicochemical
Details: DI water, 25° C., 0.5 mM; time 24 h
Kindly state Condition 2 Conversion (%) for each of the entries shown.
// note: answer is a bare numeric in %

Consider the compound shown here: `COc1ccc(NC(=O)NN=C2CC[C@@]3(c4ccc(OC)c(OC)c4)CCN(C)[C@H]3C2)cc1` What is its recorded Condition 2 Conversion (%)?
17.6

Consider the compound shown here: `COc1ccc([C@@]23CCC(=NNCc4cccc(C)c4)C[C@@H]2N(C)CC3)cc1OC` What is its recorded Condition 2 Conversion (%)?
20

Consider the compound shown here: `COc1ccc([C@@]23CCC(OC(=O)C(C)(C)C)=C[C@@H]2N(C)CC3)cc1OC` What is its recorded Condition 2 Conversion (%)?
0

Consider the compound shown here: `COc1ccc([C@@]23CCC(=NNC(=O)C(=O)O)C[C@@H]2N(C)CC3)cc1OC` What is its recorded Condition 2 Conversion (%)?
100

Consider the compound shown here: `COc1ccc([C@@]23CCC(OC(=O)c4ccc(N(C)C)cc4)=C[C@@H]2N(C)CC3)cc1OC` What is its recorded Condition 2 Conversion (%)?
0

Consider the compound shown here: `COc1ccc([C@@]23CCC(OC(=O)C4CC4)=C[C@@H]2N(C)CC3)cc1OC` What is its recorded Condition 2 Conversion (%)?
0

Consider the compound shown here: `COc1ccc([C@@]23CCC(=NOCCOc4ccccc4)C[C@@H]2N(C)CC3)cc1OC` What is its recorded Condition 2 Conversion (%)?
0

###

Assay name: Plasma Stability Assay of Example A3, mouse plasma
Details: 240 min; 5 μM, 37° C.; % of prodrug compound remaining
Rule: Mouse Plasma Prodrug (%) below 0.1% gives True, anything at or above gives False.

Bench note: check whether `COc1ccc([C@@]23CCC(OC(=O)c4ccc(C#N)cc4)=C[C@@H]2N(C)CC3)cc1OC` shows Mouse Plasma Prodrug (%) below 0.1%
True

Bench note: check whether `COc1ccc([C@@]23CCC(OC(=O)C4CC4)=C[C@@H]2N(C)CC3)cc1OC` shows Mouse Plasma Prodrug (%) below 0.1%
False

Bench note: check whether `C/C=C(\C)C(=O)OC1=C[C@@H]2N(C)CC[C@]2(c2ccc(OC)c(OC)c2)CC1` shows Mouse Plasma Prodrug (%) below 0.1%
True

Bench note: check whether `COc1ccc([C@@]23CCC(OC(=O)c4ccc(F)cc4)=C[C@@H]2N(C)CC3)cc1OC` shows Mouse Plasma Prodrug (%) below 0.1%
True

Bench note: check whether `COc1ccc([C@@]23CCC(OC(=O)c4c(C)cccc4C)=C[C@@H]2N(C)CC3)cc1OC` shows Mouse Plasma Prodrug (%) below 0.1%
False

Bench note: check whether COc1ccc([C@@]23CCC(=O)C[C@@H]2N(C)CC3)cc1OC [Compound 001, mesembrine, reference compound] shows Mouse Plasma Prodrug (%) below 0.1%
False

Bench note: check whether `COc1ccc([C@@]23CCC(OC(=O)c4cccc(C(C)(C)C)c4)=C[C@@H]2N(C)CC3)cc1OC` shows Mouse Plasma Prodrug (%) below 0.1%
True

Bench note: check whether `COc1ccc([C@@]23CCC(OC(=O)c4ccc(C(C)C)cc4)=C[C@@H]2N(C)CC3)cc1OC` shows Mouse Plasma Prodrug (%) below 0.1%
True

Bench note: check whether `COc1ccc([C@@]23CCC(OC(=O)c4ccc(N(C)C)cc4)=C[C@@H]2N(C)CC3)cc1OC` shows Mouse Plasma Prodrug (%) below 0.1%
True

Bench note: check whether `COc1ccc([C@@]23CCC(OC(=O)c4cccc(N(C)C)c4)=C[C@@H]2N(C)CC3)cc1OC` shows Mouse Plasma Prodrug (%) below 0.1%
True

Bench note: check whether `COc1ccc([C@@]23CCC(OC(=O)C(C)(C)C)=C[C@@H]2N(C)CC3)cc1OC` shows Mouse Plasma Prodrug (%) below 0.1%
True

Bench note: check whether `COc1ccc([C@@]23CCC(OC(=O)c4cccc(C)c4C)=C[C@@H]2N(C)CC3)cc1OC` shows Mouse Plasma Prodrug (%) below 0.1%
False

Bench note: check whether `COc1ccc([C@@]23CCC(OC(=O)c4cccc(C)c4)=C[C@@H]2N(C)CC3)cc1OC` shows Mouse Plasma Prodrug (%) below 0.1%
True

Bench note: check whether `C=C(C)C(=O)OC1=C[C@@H]2N(C)CC[C@]2(c2ccc(OC)c(OC)c2)CC1` shows Mouse Plasma Prodrug (%) below 0.1%
False

Values were extracted from patent US20250051277A1.
